Where do these numbers come from? They come from patent US7807678B2.

target: MC5-R (Homo sapiens); assay: Competitive inhibition binding assay, 125I-NDP-α-MSH, MC5-R; parameters: expressed in transfected cells; conditions: 1 μM compound; inhibition of 125I-NDP-α-MSH binding; mean of triplicates; results less than 0% reported as 0%
Sequence (P33032 whole entry): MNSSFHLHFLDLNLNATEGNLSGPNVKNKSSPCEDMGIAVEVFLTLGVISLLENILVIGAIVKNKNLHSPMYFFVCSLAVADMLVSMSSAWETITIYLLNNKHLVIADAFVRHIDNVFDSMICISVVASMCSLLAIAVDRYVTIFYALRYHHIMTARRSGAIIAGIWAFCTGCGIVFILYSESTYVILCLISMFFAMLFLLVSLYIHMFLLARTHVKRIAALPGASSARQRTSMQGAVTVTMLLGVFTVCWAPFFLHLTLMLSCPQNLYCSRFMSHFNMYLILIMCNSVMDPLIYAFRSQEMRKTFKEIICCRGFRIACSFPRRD
Readout kind: Inhibition at 1 μM MC5-R (%)
One number for each entry, in %.

# Compound, Inhibition at 1 μM MC5-R / %
records = [
    ("CNC(=N)NCCC[C@H]1C(=O)N(CCc2ccc3ccccc3c2)CCN1C(=O)[C@H](N)Cc1ccc(Cl)cc1Cl [Example 72]", 27),
]

Hello, I would appreciate it if you could give Inhibition at 1 μM MC5-R for each entry below.
1. NCCCNC(=O)C1CC(OCc2ccccc2)CN1C(=O)C(Cc1ccccc1)NC(=O)C1NCCc2ccccc21 (stereo not shown) [Example 159]
2. N=C(N)NCCC[C@H]1C(=O)N(CCc2ccc3ccccc3c2)CCN1C(=O)[C@H](N)Cc1ccc(Cl)cc1 [Example 123]
3. NCCCC[C@H]1C(=O)N(CCc2ccc3ccccc3c2)CCN1C(=O)[C@H](N)Cc1ccc2ccccc2c1 [Example 59]

A:
1. 0
2. 29
3. 30

====

target: MC4-R (Homo sapiens, UniProt P32245); assay: Competitive inhibition binding assay, 125I-NDP-α-MSH, MC4-R; parameters: expressed in transfected cells; settings: 1 μM compound; inhibition of 125I-NDP-α-MSH binding; mean of triplicates; results less than 0% reported as 0%
Sequence (P32245 whole entry): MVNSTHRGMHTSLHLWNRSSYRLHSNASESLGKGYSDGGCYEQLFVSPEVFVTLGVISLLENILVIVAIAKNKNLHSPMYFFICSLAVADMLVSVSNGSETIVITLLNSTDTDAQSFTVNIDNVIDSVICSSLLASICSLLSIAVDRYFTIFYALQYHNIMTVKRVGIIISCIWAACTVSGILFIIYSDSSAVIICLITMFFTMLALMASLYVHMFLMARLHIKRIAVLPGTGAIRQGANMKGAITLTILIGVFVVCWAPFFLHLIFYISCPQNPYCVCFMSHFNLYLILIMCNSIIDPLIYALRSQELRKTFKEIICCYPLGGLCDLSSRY
Could you please report measured Inhibition at 1 μM MC4-R for the items listed next?
Give bare numbers, in %.

Hello, I would appreciate it if you could give Inhibition at 1 μM MC4-R for each entry below.
1. NCCCC[C@H]1C(=O)N(CCOc2ccc3ccccc3c2)CCN1C(=O)[C@@H](Cc1ccc(Cl)cc1)NC(=O)[C@@H](N)COCc1ccccc1 [Example 29]
2. N[C@H](Cc1ccc(Cl)cc1Cl)C(=O)N1CCN(CCc2ccc3ccccc3c2)C(=O)[C@@H]1CCCCNC(=O)c1cccnc1 [Example 60]
3. NCCCNC(=O)C1CC(OCc2ccccc2)CN1C(=O)C(Cc1ccccc1)NC(=O)C1NCCc2ccccc21 (stereo not drawn) [Example 159]

A:
1: 64; 2: 23; 3: 1

====

Could you please report measured Inhibition at 1 μM MC3-R for the items listed next?
molecular target: MC3-R (Homo sapiens); assay: Competitive inhibition binding assay, 125I-NDP-α-MSH, MC3-R; set-up: expressed in transfected cells; details: 1 μM compound; inhibition of 125I-NDP-α-MSH binding; mean of triplicates; results less than 0% reported as 0%
Sequence (P41968 whole entry): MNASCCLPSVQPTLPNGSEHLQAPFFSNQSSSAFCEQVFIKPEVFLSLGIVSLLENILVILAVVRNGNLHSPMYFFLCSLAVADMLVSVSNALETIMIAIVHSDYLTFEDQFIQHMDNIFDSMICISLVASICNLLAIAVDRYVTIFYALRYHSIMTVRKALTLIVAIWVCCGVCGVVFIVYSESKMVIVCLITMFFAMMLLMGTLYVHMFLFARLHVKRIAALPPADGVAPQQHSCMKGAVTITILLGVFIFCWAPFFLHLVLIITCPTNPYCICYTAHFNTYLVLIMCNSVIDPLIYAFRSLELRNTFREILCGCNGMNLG
Numbers only, in %.

# Compound, Inhibition at 1 μM MC3-R, %
measured = [
    ("NCCCNC(=O)[C@@H]1C[C@@H](OCc2ccccc2)CN1C(=O)[C@@H](Cc1ccccc1)NC(=O)[C@@H](N)C1Cc2ccccc2C1 [Example 174]", 21),
    ("[2H]NC(Cc1cnc[nH]1)C(=O)NC(Cc1ccccc1)C(=O)N1C(CCCNC(=N)N)C(=O)N2C(COc3ccc4ccccc4c3)CCC21 (stereo not drawn) [Example 97]", 30),
    ("CC(O)C(N)C(=O)NC(Cc1ccccc1)C(=O)N1CC(OCc2ccccc2)CC1C(=O)NCCCN (stereo not drawn) [Example 176]", 0),
]

Hello, I would appreciate it if you could give Inhibition at 1 μM MC3-R for each entry below.
1. N=C(N)NCCC[C@H]1C(=O)N(CCc2ccc3ccccc3c2)CCN1C(=O)[C@H](N)Cc1ccc(Cl)cc1Cl [Example 51]
2. NCCCC[C@H]1C(=O)N(CCc2ccc3ccccc3c2)CCN1C(=O)[C@@H](Cc1ccc(Cl)cc1Cl)NC(=O)C/C=C/c1ccccc1 [Example 33]
3. CCNC(=N)NCCC[C@H]1C(=O)N(CCc2ccc3ccccc3c2)CCN1C(=O)[C@H](N)Cc1ccc(Cl)cc1Cl [Example 73]

A:
1. 47
2. 25
3. 35
